Please go through the items and note down their melting point.

Q: Requested read-out: melting point. Entry: COc1ccc(NCc2cn(-c3ccc4oc(=O)ccc4c3)nn2)cc1 [Compound 6c]
A: 140 to 142 °C

Q: Requested read-out: melting point. Entry: O=c1ccc2cc(-n3cc(CNc4cccc(Br)c4)nn3)ccc2o1 [Compound 6j]
A: 133 to 136 °C

Q: Requested read-out: melting point. Entry: CC(C)c1ccc(NCc2cn(-c3ccc4oc(=O)ccc4c3)nn2)cc1 [Compound 6f]
A: 152 to 155 °C

Q: Requested read-out: melting point. Entry: O=c1ccc2cc(-n3cc(CNc4ccccc4)nn3)ccc2o1 [Compound 6b]
A: 159 to 161 °C

Q: Requested read-out: melting point. Entry: O=c1ccc2cc(-n3cc(CNc4ccc(Oc5ccccc5)cc4)nn3)ccc2o1 [Compound 6h]
A: 172 to 174 °C

Q: Requested read-out: melting point. Entry: O=c1ccc2cc(-n3cc(CNc4ccc(Cl)cc4[N+](=O)[O-])nn3)ccc2o1 [Compound 6q]
A: 213 to 215 °C

Q: Requested read-out: melting point. Entry: O=c1ccc2cc(-n3cc(CNc4cc(F)cc(F)c4)nn3)ccc2o1 [Compound 6s]
A: 204 to 206 °C

Q: Requested read-out: melting point. Entry: Cc1cccc(NCc2cn(-c3ccc4oc(=O)ccc4c3)nn2)c1 [Compound 6m]
A: 220 to 223 °C

Q: Requested read-out: melting point. Entry: O=c1ccc2cc(-n3cc(CNc4cccc(Cl)c4)nn3)ccc2o1 [Compound 6o]
A: 134 to 137 °C

Q: Requested read-out: melting point. Entry: O=c1ccc2cc(-n3cc(CNc4cccc([N+](=O)[O-])c4)nn3)ccc2o1 [Compound 6i]
A: 230 to 234 °C

====

Tested on: hCA IX (Homo sapiens, UniProt Q16790)
Assay details: CA catalyzed CO2 hydration, stopped flow assay, hCA IX
Condition description: Ki (nM) hCA IX, recombinant enzyme; stopped flow technique; mean from 3 different assays, errors ±5–10%
Note to self: class labels come from recorded Ki, ranges listed here: group 1 (below 70 nM), group 2 (70 nM to below 90 nM), group 3 (90 nM or more)

Q: Hi there! Could you help me figure out the category for O=c1ccc2cc(-n3cc(CNc4ccccc4)nn3)ccc2o1 please?
A: group 1

Q: Hi there! Could you help me figure out the category for O=c1ccc2cc(-n3cc(CNc4ccc(F)cc4)nn3)ccc2o1 please?
A: group 2

Q: Hi there! Could you help me figure out the category for O=c1ccc2cc(-n3cc(CNc4cccc(Cl)c4)nn3)ccc2o1 please?
A: group 3

Q: Hi there! Could you help me figure out the category for Cc1cccc(NCc2cn(-c3ccc4oc(=O)ccc4c3)nn2)c1 please?
A: group 2

Q: Hi there! Could you help me figure out the category for O=c1ccc2cc(-n3cc(CNc4ccc(Cl)cc4)nn3)ccc2o1 please?
A: group 3

Q: Hi there! Could you help me figure out the category for COc1ccc(NCc2cn(-c3ccc4oc(=O)ccc4c3)nn2)cc1 please?
A: group 2

Q: Hi there! Could you help me figure out the category for Cc1ccc(NCc2cn(-c3ccc4oc(=O)ccc4c3)nn2)cc1 please?
A: group 1

Q: Hi there! Could you help me figure out the category for O=c1ccc2cc(-n3cc(CNc4ccccc4F)nn3)ccc2o1 please?
A: group 3

====

Tested on: UniProt Q8N1Q1
Sequence (Q8N1Q1 whole entry): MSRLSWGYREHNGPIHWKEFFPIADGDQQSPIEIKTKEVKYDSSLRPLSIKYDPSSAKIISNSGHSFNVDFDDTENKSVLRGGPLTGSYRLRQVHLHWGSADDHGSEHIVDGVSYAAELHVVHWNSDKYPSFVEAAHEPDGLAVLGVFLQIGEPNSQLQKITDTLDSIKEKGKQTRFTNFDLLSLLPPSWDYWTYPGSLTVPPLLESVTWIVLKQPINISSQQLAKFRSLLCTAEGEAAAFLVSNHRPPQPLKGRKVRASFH
Assay details: CA catalyzed CO2 hydration, stopped flow assay, hCA XIII
Condition description: Ki (nM) hCA XIII, recombinant enzyme; stopped flow technique; mean from 3 different assays, errors ±5–10%
Metric name: Ki

Q: Fill in the recorded Ki for this compound, with UniProt Q8N1Q1 as test system: O=c1ccc2cc(-n3cc(CNc4ccccc4I)nn3)ccc2o1
A: 594 nM

Q: Fill in the recorded Ki for this compound, with UniProt Q8N1Q1 as test system: O=c1ccc2cc(-n3cc(CNc4ccccc4F)nn3)ccc2o1
A: 6030 nM

Q: Fill in the recorded Ki for this compound, with UniProt Q8N1Q1 as test system: Cc1cc(C)c(NCc2cn(-c3ccc4oc(=O)ccc4c3)nn2)c(C)c1
A: 903 nM

Q: Fill in the recorded Ki for this compound, with UniProt Q8N1Q1 as test system: O=c1ccc2cc(-n3cc(CNc4ccc(Br)cc4)nn3)ccc2o1
A: 883 nM

Q: Fill in the recorded Ki for this compound, with UniProt Q8N1Q1 as test system: CC(C)c1ccc(NCc2cn(-c3ccc4oc(=O)ccc4c3)nn2)cc1
A: 8150 nM

Q: Fill in the recorded Ki for this compound, with UniProt Q8N1Q1 as test system: O=c1ccc2cc(-n3cc(CNc4cccc(Cl)c4)nn3)ccc2o1
A: 95.4 nM

Q: Fill in the recorded Ki for this compound, with UniProt Q8N1Q1 as test system: O=c1ccc2cc(-n3cc(CNc4cccc([N+](=O)[O-])c4)nn3)ccc2o1
A: 896 nM

Q: Fill in the recorded Ki for this compound, with UniProt Q8N1Q1 as test system: COc1ccc(NCc2cn(-c3ccc4oc(=O)ccc4c3)nn2)cc1
A: 950 nM

Q: Fill in the recorded Ki for this compound, with UniProt Q8N1Q1 as test system: O=c1ccc2cc(-n3cc(CNc4ccc(Oc5ccccc5)cc4)nn3)ccc2o1
A: 905 nM

Q: Fill in the recorded Ki for this compound, with UniProt Q8N1Q1 as test system: O=c1ccc2cc(-n3cc(CNc4ccc(F)cc4)nn3)ccc2o1
A: 840 nM

Q: Fill in the recorded Ki for this compound, with UniProt Q8N1Q1 as test system: Cc1cccc(NCc2cn(-c3ccc4oc(=O)ccc4c3)nn2)c1C
A: 550 nM
